# key: entry, value: % residual binding
- assay.target: T1, biotinylated CD32bECDHis (human, UniProt P31994 43-223, limits assumed, biotinylated (sites not given))
- T1 sequence (looked up): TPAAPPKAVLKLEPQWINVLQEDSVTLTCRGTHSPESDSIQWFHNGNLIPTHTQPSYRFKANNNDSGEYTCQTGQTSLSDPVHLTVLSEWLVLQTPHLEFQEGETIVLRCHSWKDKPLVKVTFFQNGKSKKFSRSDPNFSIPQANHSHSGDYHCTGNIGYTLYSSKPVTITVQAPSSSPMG
- experiment.notes: competition ELISA, competitor 024
Respond with the bare value in %.

Exercise: What value of % residual binding has been reported for the following binder? Antibody 022 (antibody, V domains shown, also called HuMab 022) VH: QVQLVQSGAEVKKPGASVKVSCKASGYTFTSYGLSWVRQAPGQGLEWMGWISPYNGNTHYAQKLQGRVTMTTDTSTSTADMDLRSLRSDDTAVYYCARASAAHGMDVWGQGTTVTVSS VL: DIQMTQSPSSLSASVGDRVTITCRASQGISSWLAWYQQKPEKAPKSLIYAASSLQSGVPSRFSGSRSGTDFTLTISSLQPEDFATYYCQQYNSYPYTFGQGTKLEIKR
Solution: 13

Exercise: What value of % residual binding has been reported for the following binder? Antibody 028 (antibody, V domains shown, List 1 gives no VL for antibody 028; The VL is therefore uncertain; also called HuMab 028) VH: QVQVVQSGAEVKKPGASVKVSCKTSGYTFTSYGISWVRQAPGQGLEWMGWISAYNGNTKYAQKLQGRLTMTTDTSTTTAYMELRSLRSDDTAVYYCARDSAAHGMDVWGQGTTVSVSS VL: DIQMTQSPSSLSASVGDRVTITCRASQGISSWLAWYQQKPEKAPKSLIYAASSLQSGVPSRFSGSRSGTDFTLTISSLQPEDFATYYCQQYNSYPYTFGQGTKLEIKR
Solution: 7

Exercise: What value of % residual binding has been reported for the following binder? Antibody 020 (antibody, V domains shown, also called HuMab 020) VH: QVQLVQSGGEVKKPGASVKVSCKTSGYTFTSYGISWVRQAPGQGLEWMGWISAYNGNTKYAQKLQGRLTMTTDTSTTTAYMELRSLRSDDTAVYYCARDSAAHGMDVWGQGTTVTVSS VL: DIQMTQSPSSLSASVGDRVTITCRASQGISSWLAWYQQKPEKAPKSLIYAASSLQSGVPSRFRGSGSGTDFTLTISSLQPEDFATYYCQQYNSYPYTFGQGTKLEIKR
Solution: 4

Exercise: What value of % residual binding has been reported for the following binder? Antibody 026 (antibody, V domains shown, Human antibody; also called HuMab 026) VH: QVQLVQSGAEVKKPGASVKVSCKASGYTFTSYGLSWVRQAPGQGLEWMGWISAYNGNTNYAQKLQGRVTMTTDTSTSTAYMDLRSLRSDDTAVYYCARDSAAHGMDVWGQGTTVTVSS VL: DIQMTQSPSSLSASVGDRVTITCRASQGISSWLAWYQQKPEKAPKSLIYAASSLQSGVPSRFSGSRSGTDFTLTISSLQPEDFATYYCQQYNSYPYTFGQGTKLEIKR
Solution: 1
